study target: Pituitary adenylate cyclase-activating polypeptide (Homo sapiens)
Sequence (P18509 132-169 limits assumed): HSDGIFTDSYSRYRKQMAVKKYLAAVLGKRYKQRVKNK
Each entry below carries its recorded Ki.

{"columns": ["substance", "Ki (nM)"],
 "data": [
  ["H-TDSYSRYRKQMAVKKYLAAVL-NH2 [PACAP(6-27)]", 200],
  ["H-TDSYSRYRKQMAVKKYLAAVLGKRYKQRVKNK-NH2 [PACAP(7-38)]", 8],
  ["H-FTDSYSRYRKQMAVKKYLAAVL-NH2 [PACAP(5-27)]", 60]
]}
